System: ICR strain mice
experiment: acute toxicity in mice (Experimental Example 3)
Type: in vivo
assay_setup: 1 g/kg, oral, groups of 5 ICR mice
outcome_measure: acute toxicity: change observed over the one-week period after administration

compound | val
O=C1CN(S(=O)(=O)c2cc3cc(Cl)ccc3o2)C(=O)N1 | no change was observed
O=C1CN(S(=O)(=O)c2cc3cc(Br)ccc3o2)C(=O)N1 | no change was observed
O=C1CN(S(=O)(=O)c2cc(Cl)sc2Cl)C(=O)N1 | no change was observed
O=C1CN(S(=O)(=O)c2cc3ccc(Cl)cc3cc2Cl)C(=O)N1 | no change was observed
O=C1CN(S(=O)(=O)c2cc3cc(Cl)c(Cl)cc3o2)C(=O)N1 | no change was observed

Query: Fill in: acute toxicity: change observed over the one-week period after administration of O=C1CN(S(=O)(=O)c2cc3c(Cl)c(Cl)ccc3o2)C(=O)N1 is ___
Reply: no change was observed

Query: Quick check: acute toxicity: change observed over the one-week period after administration of O=C1CN(S(=O)(=O)c2cc3ccccc3o2)C(=O)N1 [Compound 19, 1-(benzo[b]furan-2-ylsulfonyl)hydantoin] ?
Reply: no change was observed

Query: Item under review: O=C1CN(S(=O)(=O)c2cc3c(Cl)cccc3s2)C(=O)N1 . Reported acute toxicity: change observed over the one-week period after administration?
Reply: no change was observed

Query: Which value of acute toxicity: change observed over the one-week period after administration has been reported for O=C1CN(S(=O)(=O)c2oc3ccccc3c2Br)C(=O)N1 in the records?
Reply: no change was observed

---

outcome_measure: IC50

Query: Kindly state the measured IC50 obtained for O=C1CN(S(=O)(=O)c2cc3cc(Br)ccc3o2)C(=O)N1 with bovine lens aldose reductase (Bos taurus).
Reply: 300 nM

Query: Recall the recorded IC50 for O=C1CN(S(=O)(=O)c2cc3cc(Cl)ccc3o2)C(=O)N1 with bovine lens aldose reductase (Bos taurus) and state it.
Reply: 360 nM

Query: Fill in the recorded IC50 for this molecule, with bovine lens aldose reductase (Bos taurus) as test system: O=C1CN(S(=O)(=O)c2nc3ccccc3s2)C(=O)N1
Reply: 340 nM

Query: Reported IC50 for bovine lens aldose reductase (Bos taurus), given O=C1CN(S(=O)(=O)c2oc3ccccc3c2Br)C(=O)N1 ?
Reply: 160 nM

Query: Checklist item: IC50 tested on bovine lens aldose reductase (Bos taurus), entry O=C1CN(S(=O)(=O)c2cc3c(Cl)c(Cl)ccc3o2)C(=O)N1 , value?
Reply: 61 nM

Query: // map O=C1CN(S(=O)(=O)c2cc(Cl)sc2Cl)C(=O)N1 to recorded IC50 (system: bovine lens aldose reductase (Bos taurus))
Reply: 290 nM

Query: Under bovine lens aldose reductase (Bos taurus): IC50 value of O=C1CN(S(=O)(=O)c2sc3ccccc3c2C(F)(F)F)C(=O)N1 ?
Reply: 130 nM

Query: Provide the documented IC50 with bovine lens aldose reductase (Bos taurus) as the system for O=C1CN(S(=O)(=O)c2cc3cc(C(=O)O)ccc3s2)C(=O)N1
Reply: 400 nM

Query: Hello, I am looking for reported IC50 with bovine lens aldose reductase (Bos taurus) for O=C1CN(S(=O)(=O)c2cc(Br)c(Br)s2)C(=O)N1 . Could you help?
Reply: 260 nM

Query: Form: Entry = O=C1CN(S(=O)(=O)c2cc3c(Cl)cccc3s2)C(=O)N1 | System = bovine lens aldose reductase (Bos taurus) | IC50 = ____
Reply: 170 nM

Query: Which IC50 is reported with bovine lens aldose reductase (Bos taurus) for this entry: COc1ccc2cc(S(=O)(=O)N3CC(=O)NC3=O)ccc2c1[N+](=O)[O-] ?
Reply: 230 nM

Query: Query for bovine lens aldose reductase (Bos taurus): what IC50 does the record show for O=C1CN(S(=O)(=O)c2oc3cc(Cl)cc(Cl)c3c2Br)C(=O)N1 ?
Reply: 54 nM

Query: Write down the reported IC50 of O=C1CN(S(=O)(=O)c2sc3ccccc3c2Cl)C(=O)N1 , test system: bovine lens aldose reductase (Bos taurus).
Reply: 120 nM

Query: Form entry - test system: bovine lens aldose reductase (Bos taurus); read-out: IC50; molecule: CS(=O)(=O)c1c(S(=O)(=O)N2CC(=O)NC2=O)sc2ccccc12
Reply: 380 nM

Query: Enter reported IC50 observed with bovine lens aldose reductase (Bos taurus) for O=C1CN(S(=O)(=O)c2cc3cc(Cl)c(Cl)cc3o2)C(=O)N1
Reply: 83 nM

Query: Given the entry O=C1CN(S(=O)(=O)c2c(Cl)sc3ccccc23)C(=O)N1 , what IC50 was observed with bovine lens aldose reductase (Bos taurus)?
Reply: 300 nM

Query: Give recorded IC50 with bovine lens aldose reductase (Bos taurus) for the following molecule: O=C1CN(S(=O)(=O)c2cc3c(Cl)cc(Cl)cc3o2)C(=O)N1
Reply: 170 nM

Query: Field: IC50 (bovine lens aldose reductase (Bos taurus)). Entry: O=C1CN(S(=O)(=O)c2cc3cc([N+](=O)[O-])ccc3s2)C(=O)N1
Reply: 270 nM

Query: Report IC50 for CC(C)c1c(S(=O)(=O)N2CC(=O)NC2=O)sc2ccccc12 tested on bovine lens aldose reductase (Bos taurus).
Reply: 140 nM

Query: Query for bovine lens aldose reductase (Bos taurus): what IC50 does the record show for O=C1CN(S(=O)(=O)c2cc3cccc(Cl)c3s2)C(=O)N1 ?
Reply: 190 nM

Query: Can you look up IC50 on bovine lens aldose reductase (Bos taurus) for N#Cc1c(S(=O)(=O)N2CC(=O)NC2=O)sc2ccccc12 ?
Reply: 190 nM
